Some molecules, each annotated with its measured pEC50.
target: α5β2γ2S GABAA receptors (Homo sapiens, UniProt P31644+P47870); experiment: Two-microelectrode voltage clamp, IGABA modulation, α5β2γ2S
Sequence (P31644 32-462, one chain of several): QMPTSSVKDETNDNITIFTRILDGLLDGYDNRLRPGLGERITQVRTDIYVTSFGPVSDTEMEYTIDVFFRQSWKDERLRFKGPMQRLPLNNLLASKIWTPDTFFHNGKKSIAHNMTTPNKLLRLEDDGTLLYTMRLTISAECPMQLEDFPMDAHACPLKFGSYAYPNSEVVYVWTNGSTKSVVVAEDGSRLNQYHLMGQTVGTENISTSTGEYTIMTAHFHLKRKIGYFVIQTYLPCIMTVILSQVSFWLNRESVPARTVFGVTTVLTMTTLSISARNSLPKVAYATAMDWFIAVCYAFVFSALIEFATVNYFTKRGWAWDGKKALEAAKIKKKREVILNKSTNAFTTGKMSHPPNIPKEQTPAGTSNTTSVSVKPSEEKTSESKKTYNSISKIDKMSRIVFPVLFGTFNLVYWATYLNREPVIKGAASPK
Reminder that pEC50 is minus the log10 of a molar concentration.

[
  {
    "MOLECULE": "CCCN(CCC)C(=O)/C=C/C=C/c1ccc2c(c1)OCO2 [Compound 23]",
    "REPORTED_ENDPOINT": "pEC50",
    "READOUT_NUMBER": 4.21
  }
]

Proceeding to the next molecule to report its pEC50.
IN: Look up pEC50: CCCCN(CCCC)C(=O)/C=C/C=C/c1ccc2c(c1)OCO2 [Compound 25]
OUT: 4.76

---

This listing pairs molecules with measured nH.
biological target: α1β2γ2S GABAA receptors (Homo sapiens, UniProt P14867+P47870); construct: expressed in transfected cells; host or cells: Xenopus laevis oocytes injected with cRNA (pCMV cDNA templates); assay: Two-microelectrode voltage clamp, IGABA modulation, α1β2γ2S; assay type: cell-based; settings: Hill coefficient of concentration–response curve
Sequence (P14867 28-456): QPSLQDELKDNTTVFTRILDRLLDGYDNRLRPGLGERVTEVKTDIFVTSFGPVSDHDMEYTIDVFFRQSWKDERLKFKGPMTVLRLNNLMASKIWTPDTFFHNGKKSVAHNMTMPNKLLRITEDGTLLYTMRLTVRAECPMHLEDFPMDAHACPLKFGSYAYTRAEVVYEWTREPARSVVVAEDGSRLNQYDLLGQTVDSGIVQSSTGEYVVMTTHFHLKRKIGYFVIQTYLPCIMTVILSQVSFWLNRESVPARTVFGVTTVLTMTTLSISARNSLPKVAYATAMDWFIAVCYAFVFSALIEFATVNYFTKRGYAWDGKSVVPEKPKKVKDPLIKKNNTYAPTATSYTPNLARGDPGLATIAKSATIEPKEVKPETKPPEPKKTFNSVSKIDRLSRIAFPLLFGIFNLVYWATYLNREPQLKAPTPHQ
Sequence (P47870 26-512): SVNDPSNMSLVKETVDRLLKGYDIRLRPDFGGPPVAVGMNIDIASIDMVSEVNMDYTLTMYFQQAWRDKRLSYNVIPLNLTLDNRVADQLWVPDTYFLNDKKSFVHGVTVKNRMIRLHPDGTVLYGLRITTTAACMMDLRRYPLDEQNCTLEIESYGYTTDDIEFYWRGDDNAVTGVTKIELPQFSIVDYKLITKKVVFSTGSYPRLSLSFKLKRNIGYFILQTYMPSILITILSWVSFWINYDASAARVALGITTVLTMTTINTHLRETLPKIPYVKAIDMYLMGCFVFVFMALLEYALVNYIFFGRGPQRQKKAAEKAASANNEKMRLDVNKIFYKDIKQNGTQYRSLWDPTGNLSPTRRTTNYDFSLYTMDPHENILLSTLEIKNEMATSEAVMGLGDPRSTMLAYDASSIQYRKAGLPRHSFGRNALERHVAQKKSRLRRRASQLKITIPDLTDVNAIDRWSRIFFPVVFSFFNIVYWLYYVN
Sequence (P18507 40-467 isoform P18507-1 partner limits assumed): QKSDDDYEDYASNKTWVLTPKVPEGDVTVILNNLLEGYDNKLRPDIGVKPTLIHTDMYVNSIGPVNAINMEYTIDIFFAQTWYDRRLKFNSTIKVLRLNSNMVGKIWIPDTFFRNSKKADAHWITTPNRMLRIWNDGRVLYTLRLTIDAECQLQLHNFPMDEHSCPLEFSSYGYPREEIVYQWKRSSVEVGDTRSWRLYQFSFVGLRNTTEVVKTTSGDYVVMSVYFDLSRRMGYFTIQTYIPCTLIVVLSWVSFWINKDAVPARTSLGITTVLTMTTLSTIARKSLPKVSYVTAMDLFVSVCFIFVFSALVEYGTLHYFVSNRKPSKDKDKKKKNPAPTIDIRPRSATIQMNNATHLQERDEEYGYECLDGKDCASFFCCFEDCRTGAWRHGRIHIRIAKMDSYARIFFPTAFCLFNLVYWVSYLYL
Write no unit; give the number alone.

# example entries with known answers
[
  {
    "STRUCTURE_STRING": "O=C(/C=C/C=C/c1ccc2c(c1)OCO2)N(CC(F)(F)F)CC(F)(F)F",
    "nH": 1.6
  },
  {
    "STRUCTURE_STRING": "CCCCN(CCCC)C(=O)c1ccccc1-c1ccc2c(c1)OCO2",
    "nH": 1.2
  },
  {
    "STRUCTURE_STRING": "CCCCN(CCCC)C(=O)/C=C/C=C/c1ccc2c(c1)OCO2",
    "nH": 1.8
  }
]

IN: Can you look up nH on α1β2γ2S GABAA receptors (Homo sapiens, UniProt P14867+P47870) for `CCCN(CCC)C(=O)/C=C/C=C/c1ccc2c(c1)OCO2` ?
OUT: 3.1

IN: # get_value(readout= nH, system= α1β2γ2S GABAA receptors (Homo sapiens, UniProt P14867+P47870)) for `CC1CCN(C(=O)/C=C/C=C/c2ccc3c(c2)OCO3)CC1`
OUT: 1.9

---

Measured activation at 100 µM accompanies every entry in the list below.
Biological target: α1β2γ2S GABAA receptors (Homo sapiens, UniProt P14867+P47870)
Construct: expressed in transfected cells; host or cells: Xenopus laevis oocytes injected with cRNA (pCMV cDNA templates)
Test: Two-microelectrode voltage clamp, IGABA modulation, α1β2γ2S
Format: cell-based
Details: 100 μM compound, GABA EC3–7, Xenopus laevis oocytes, mean ± SEM
Procedure: Preparation of stage V–VI oocytes from X. laevis and synthesis of capped runoff poly(A) cRNA transcripts from linearized cDNA templates (pCMV vector) was performed as previously described.[49] […] To ensure expression of the γ2S subunit in the case of α1/2/3/5β2/3γ2S receptors, cRNAs were mixed in a ratio of 1:1:10. […] The amount of cRNAs was determined by means of a NanoDrop ND-1000 (Kisker-Biotech, Steinfurt, Germany). […]
Quick note: give the figure in %, leave out the unit.

Worked examples, 3 compounds total:
[
  {
    "COMPOUND": "CC(C)N(C(=O)c1ccc(-c2ccc3c(c2)OCO3)cc1)C(C)C",
    "STUDY_TARGET": "α1β2γ2S GABAA receptors (Homo sapiens, UniProt P14867+P47870)",
    "UNIT_DESCRIPTOR": "%",
    "activation at 100 µM": 30
  },
  {
    "COMPOUND": "O=C(c1ccc(-c2ccc3c(c2)OCO3)s1)N1CCCCC1",
    "STUDY_TARGET": "α1β2γ2S GABAA receptors (Homo sapiens, UniProt P14867+P47870)",
    "UNIT_DESCRIPTOR": "%",
    "activation at 100 µM": -5
  },
  {
    "COMPOUND": "O=C(/C=C/C=C/c1ccc2c(c1)OCO2)NCCC(c1ccccc1)c1ccccc1",
    "STUDY_TARGET": "α1β2γ2S GABAA receptors (Homo sapiens, UniProt P14867+P47870)",
    "UNIT_DESCRIPTOR": "%",
    "activation at 100 µM": -6
  }
]

IN: So what's the measured activation at 100 µM for this one? O=C(/C=C/C=C/c1ccc2c(c1)OCO2)N1CCCC(O)C1 (stereo not shown)
OUT: 33

IN: I have this compound here, `O=C(/C=C/c1ccc2c(c1)OCO2)N1CCCCC1` , and I need its recorded activation at 100 µM.
OUT: 79

IN: Quick one: activation at 100 µM for `COc1cc(NC(=O)/C=C/C=C/c2ccc3c(c2)OCO3)cc(OC)c1OC` ?
OUT: 10

IN: What measured activation at 100 µM goes with `CSc1ccc(NC(=O)/C=C/C=C/c2ccc3c(c2)OCO3)cc1` ?
OUT: 0

---

target: α2β2γ2S GABAA receptors (Homo sapiens, UniProt P47869+P47870); experiment: Two-microelectrode voltage clamp, IGABA modulation, α2β2γ2S
Sequence (P47869 29-451, one chain of several): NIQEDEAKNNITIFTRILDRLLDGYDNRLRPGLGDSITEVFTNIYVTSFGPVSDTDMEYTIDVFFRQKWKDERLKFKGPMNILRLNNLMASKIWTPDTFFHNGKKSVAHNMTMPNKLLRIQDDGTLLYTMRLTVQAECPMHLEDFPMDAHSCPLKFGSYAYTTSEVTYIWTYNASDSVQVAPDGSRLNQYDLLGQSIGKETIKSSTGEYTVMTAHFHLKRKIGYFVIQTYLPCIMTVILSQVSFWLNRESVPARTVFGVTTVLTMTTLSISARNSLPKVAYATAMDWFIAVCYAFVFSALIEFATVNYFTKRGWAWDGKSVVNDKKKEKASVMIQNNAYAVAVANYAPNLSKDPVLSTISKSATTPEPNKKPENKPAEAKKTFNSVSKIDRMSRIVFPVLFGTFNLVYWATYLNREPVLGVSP
Recorded pEC50 values for a group of compounds are listed next.
Please express pEC50 as -log10 of the molar concentration.

[
  {
    "COMPOUND": "CCCCN(CCCC)C(=O)/C=C/C=C/c1ccc2c(c1)OCO2 [Compound 25]",
    "READOUT_NUMBER": 4.83
  }
]

Note: attention shifts to another entry.
IN: Quick check: pEC50 on α2β2γ2S GABAA receptors (Homo sapiens, UniProt P47869+P47870), item CCCN(CCC)C(=O)/C=C/C=C/c1ccc2c(c1)OCO2 [Compound 23] ?
OUT: 4.58

---

target: α1β2γ2S GABAA receptors (Homo sapiens, UniProt P14867+P47870); construct: expressed in transfected cells; host or cells: Xenopus laevis oocytes injected with cRNA (pCMV cDNA templates); experiment: Two-microelectrode voltage clamp, IGABA modulation, α1β2γ2S; type: cell-based; details: 100 μM compound, GABA EC3–7, Xenopus laevis oocytes, mean ± SEM
# activation at 100 µM >= 20% gives T, anything below gives F

Solved entries:
[
  {
    "STRUCTURE_STRING": "CCCN(CCC)C(=O)c1cccc2c(-c3ccc4c(c3)OCO4)cccc12",
    "STUDY_TARGET": "α1β2γ2S GABAA receptors (Homo sapiens, UniProt P14867+P47870)",
    "ASSIGNED_LABEL": "F"
  },
  {
    "STRUCTURE_STRING": "O=C(/C=C/C=C/c1ccc2c(c1)OCO2)N1CCN(CCOCCO)CC1",
    "STUDY_TARGET": "α1β2γ2S GABAA receptors (Homo sapiens, UniProt P14867+P47870)",
    "ASSIGNED_LABEL": "F"
  },
  {
    "STRUCTURE_STRING": "O=C(/C=C/C=C/c1ccc2c(c1)OCO2)NCCCc1ccccc1",
    "STUDY_TARGET": "α1β2γ2S GABAA receptors (Homo sapiens, UniProt P14867+P47870)",
    "ASSIGNED_LABEL": "F"
  },
  {
    "STRUCTURE_STRING": "O=C(c1cccc2cc3c(cc12)OCO3)N1CCCCC1",
    "STUDY_TARGET": "α1β2γ2S GABAA receptors (Homo sapiens, UniProt P14867+P47870)",
    "ASSIGNED_LABEL": "T"
  },
  {
    "STRUCTURE_STRING": "CCCCN(CCCC)C(=O)/C=C/c1cccc2cc3c(cc12)OCO3",
    "STUDY_TARGET": "α1β2γ2S GABAA receptors (Homo sapiens, UniProt P14867+P47870)",
    "ASSIGNED_LABEL": "F"
  }
]

// switching to the query molecule
IN: Quick check, activation at 100 µM >= 20%? `CC(C)N(C(=O)c1ccc(-c2ccc3c(c2)OCO3)s1)C(C)C`
OUT: F

---

Molecular target: α1β1γ2S GABAA receptors (Homo sapiens, UniProt P14867+P18505)
Sequence (P18505 26-474, one chain of several): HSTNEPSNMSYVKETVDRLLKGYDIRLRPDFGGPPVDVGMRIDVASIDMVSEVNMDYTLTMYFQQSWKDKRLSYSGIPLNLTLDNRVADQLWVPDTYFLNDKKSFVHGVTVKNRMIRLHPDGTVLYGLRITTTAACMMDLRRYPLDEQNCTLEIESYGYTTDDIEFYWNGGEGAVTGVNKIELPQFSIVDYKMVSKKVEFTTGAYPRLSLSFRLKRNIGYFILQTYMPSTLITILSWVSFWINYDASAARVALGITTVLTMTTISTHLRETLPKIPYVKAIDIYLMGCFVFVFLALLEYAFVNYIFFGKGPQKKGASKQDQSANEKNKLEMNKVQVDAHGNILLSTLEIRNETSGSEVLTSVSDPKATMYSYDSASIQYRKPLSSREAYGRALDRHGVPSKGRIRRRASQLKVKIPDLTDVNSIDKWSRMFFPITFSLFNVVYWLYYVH
Test: Two-microelectrode voltage clamp, IGABA modulation, α1β1γ2S
Method: Preparation of stage V–VI oocytes from X. laevis and synthesis of capped runoff poly(A) cRNA transcripts from linearized cDNA templates (pCMV vector) was performed as previously described.[49] […] To ensure expression of the γ2S subunit in the case of α1/2/3/5β2/3γ2S receptors, cRNAs were mixed in a ratio of 1:1:10. […] The amount of cRNAs was determined by means of a NanoDrop ND-1000 (Kisker-Biotech, Steinfurt, Germany). […]
Below, each entry is listed alongside its reported EC50.

[
  {
    "STRUCTURE_STRING": "CCCN(CCC)C(=O)/C=C/C=C/c1ccc2c(c1)OCO2",
    "EC50": "57.5 µM"
  }
]

Turning now to a further record.
IN: Which EC50 is reported for this molecule? `CCCCN(CCCC)C(=O)/C=C/C=C/c1ccc2c(c1)OCO2`
OUT: 15.9 µM

Source of measurements: paper PMC4106271
